- Target Desc: LPA2 receptor (Homo sapiens, UniProt Q9HBW0)
- Sequence (Q9HBW0 whole entry): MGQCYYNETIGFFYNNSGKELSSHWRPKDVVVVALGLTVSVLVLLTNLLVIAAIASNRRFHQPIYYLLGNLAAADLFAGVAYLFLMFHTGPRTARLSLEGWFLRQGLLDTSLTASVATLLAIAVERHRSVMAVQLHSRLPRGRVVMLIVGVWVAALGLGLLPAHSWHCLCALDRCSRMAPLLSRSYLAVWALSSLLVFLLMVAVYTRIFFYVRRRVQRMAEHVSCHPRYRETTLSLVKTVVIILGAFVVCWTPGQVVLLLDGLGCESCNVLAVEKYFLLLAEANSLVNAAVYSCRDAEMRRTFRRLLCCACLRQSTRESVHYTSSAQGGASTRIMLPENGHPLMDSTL
- Test Summary: LPA2 receptor agonist activity (EC50, Emax)
- Type: cell-based
- Condition Description: Table 2
Catalogue of pEC50 readings, one per entry.
Entry type: numeric. Quantity: pEC50, the -log10 of concentration in molar units.

Known pEC50 results, listed for orientation:
# Compound, pEC50
data = [
    ("CCCCCCCC=CCCCCCCCC[C@@H]1OC[C@H](COP(=O)([O-])O)O1.[K+]", 5.77),
    ("CCCCCCCC=CCCCCCCCC[C@H]1OC[C@@H](COP([O-])(O)=S)O1.[K+]", 5.88),
    ("CCCCCCCC=CCCCCCCCC[C@H]1OC[C@H](COP([O-])(O)=S)O1.[K+]", 5.89),
]

Asked: Using the record for CCCCCCCC=CCCCCCCCCC1OCC(COP(O)(O)=S)O1.[K] (stereo not shown) , report its pEC50.
Given back: 5.93

Asked: Using the record for CC=CCC=CCC=CCCCCCCCCC1OCC(COP(=O)(O)O)O1.[K] (stereo not shown) , report its pEC50.
Given back: 5.77

Asked: Using the record for CCCCCCCC=CCCCCCCCC[C@@H]1OC[C@H](COP([O-])(O)=S)O1.[K+] , report its pEC50.
Given back: 5.96

Asked: Using the record for CCCCCCCC=CCCCCCCCC[C@@H]1OC[C@@H](COP([O-])(O)=S)O1.[K+] , report its pEC50.
Given back: 5.81
